- SETTINGS: in isopropanol, 303.15 K
ENDPOINT: solubility (mole fraction)

Incoming: I am curious: what solubility (mole fraction) value has been reported for O=C1C2C3C=CC(C3)C2C(=O)N1O (stereo unspecified) ?
Outgoing: 0.0495

###

- SETTINGS: in 2-propoxyethanol, 323.15 K
ENDPOINT: solubility (mole fraction)
Keep the answer to the number alone.

Incoming: Return reported solubility (mole fraction); argument: O=C1C2C3C=CC(C3)C2C(=O)N1O (stereo unspecified)
Outgoing: 0.123

###

- SETTINGS: in isopropanol, 278.15 K
ENDPOINT: solubility (mole fraction)
Just the number, please.

Incoming: Which solubility (mole fraction) value belongs to O=C1C2C3C=CC(C3)C2C(=O)N1O (stereo unspecified) ?
Outgoing: 0.0197
